# test_system: MCL-1 (Homo sapiens, UniProt Q07820)
# Sequence (Q07820 172-327): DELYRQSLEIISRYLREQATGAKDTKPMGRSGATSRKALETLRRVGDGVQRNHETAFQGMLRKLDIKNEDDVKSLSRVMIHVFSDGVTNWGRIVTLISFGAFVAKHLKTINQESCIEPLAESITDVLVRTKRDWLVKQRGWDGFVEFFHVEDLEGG
# test_details: biochemical
For each record, write down the corresponding IC50.

Solved cases below.
>>> print(df.to_string())
                            substance  reading
0  Ac-SAAQLTAARLKALGDELHQ-NH2 [HRK-s]  > 50 µM
1  Ac-SAAQLLAARLKALGDELHQ-NH2 [HRK-4]   3.5 µM
2  Ac-SAAQLYAARLKALGDELHQ-NH2 [HRK-1]  > 50 µM

Count: 4. Required value per item: IC50.
1. Ac-RYGRELRRMSDEFVDSFKK-NH2 [BAD-s, reference compound]
2. Ac-SAAQLYAARLKALGDEFHQ-NH2 [HRK-2]
3. Ac-SAAQLLAARLKAFGDEFHQ-NH2 [HRK-5]
4. Ac-SAAQLYAARLKAFGDEFHQ-NH2 [HRK-hybrid]

A)
1. > 50 µM
2. > 50 µM
3. 16 µM
4. > 50 µM

---

# test_system: MCL-1 (Homo sapiens, UniProt Q07820)
# conditions: IC50 HRK/MCL-1 divided by IC50 HRK/BCL-xL
For each record, write down the corresponding IC50 ratio MCL-1 : BCL-xL (selectivity index).

>>> print(df.to_string())
                                 substance  reading
0       Ac-SAAQLYAARLKALGDELHQ-NH2 [HRK-1]    > 5.8
1       Ac-SAAQLLAARLKAFGDEFHQ-NH2 [HRK-5]     16.0
2  Ac-SAAQLYAARLKAFGDEFHQ-NH2 [HRK-hybrid]    >55.5
3       Ac-SAAQLYAARLKALGDEFHQ-NH2 [HRK-2]   > 45.4
4       Ac-SAAQLLAARLKALGDELHQ-NH2 [HRK-4]      2.5

Measured IC50 ratio MCL-1 : BCL-xL (selectivity index), Ac-SAAQLTAARLKALGDELHQ-NH2 [HRK-s] : > 2.3

Reference for the values: paper PMC9904277
